molecular target: UniProtKB Q9Y657; details: read-out: Kd
MEASUREMENT TYPE: pKd
Would you please state pKd, meaning minus log10 of the concentration in mol/L, as a bare number?

**Q:** Recall and state the measured pKd for COc1c(CN)cc(CN)cc1OCCCN1CCCC1 .
**A:** 6.41

---

biological target: Spindlin-1 (Homo sapiens, UniProt Q9Y657); test: biochemical
Sequence (Q9Y657 whole entry): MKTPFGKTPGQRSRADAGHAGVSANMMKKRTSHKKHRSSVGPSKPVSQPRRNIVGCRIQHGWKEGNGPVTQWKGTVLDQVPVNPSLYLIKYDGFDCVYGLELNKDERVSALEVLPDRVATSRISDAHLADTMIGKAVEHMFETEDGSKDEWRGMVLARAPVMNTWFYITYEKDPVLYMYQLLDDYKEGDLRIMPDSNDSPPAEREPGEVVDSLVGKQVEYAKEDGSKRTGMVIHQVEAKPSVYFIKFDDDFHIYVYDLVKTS
MEASUREMENT TYPE: IC50 (nM)
API: value field is a number in nM; no unit string.

**Q:** Provide IC50, tested on Spindlin-1 (Homo sapiens, UniProt Q9Y657), for COc1c(CN)cc(CN)cc1OCCCN1CCCC1 .
**A:** 338
